// provenance: PubChem BioAssay (NCI)

Test system: RXF 393 renal
Assay: NCI-60 one-dose screen, 48 h
Conditions: 10 µM unless noted
The panel holds about 83,000 compounds, 20% with a hit somewhere; the sample as a whole holds those more often. Calls of active or inactive are those of the source. How the source made its calls: active means growth percent below 10; inactive means the rest.
Outcome field: choose from Yes for active, No for inactive

compound | discrete-label
Cc1cc2c(F)c(Oc3ncnc(Nc4ccc(N5C[C@@H](C)N[C@@H](C)C5)cc4)c3C#N)cc(F)c2[nH]1 | Yes
N#Cc1cnn2c(-c3ccc(Cl)cc3)nc(NCCc3ccccc3)nc12 | No
O=C(O)c1ccc(CO)o1 | No
Cn1nnnc1-c1ccc(N)cc1 | No
CCn1c(Sc2nnc(NC(=O)CSC(=S)N3CCCCC3)s2)nc2c1c(=O)n(C)c(=O)n2C | No

Consider now this further compound.
Query: Record request — test call for OC(COc1cccc2ccccc12)CN1CCN(c2ccccc2)CC1 (stereo unspecified)
Reply: Yes

----------
System: CCRF-CEM leukemia
Experiment: NCI-60 one-dose screen, 48 h (100 = growth as untreated, 0 = no growth, -100 = all killed)
Conditions: 10 µM unless noted
About 83,000 compounds went through this panel and 20% of them were active in at least one assay; those are over-represented in the sample as a whole.
measured-parameter: growth (%)
Write the value in % as a bare number.

Some solved cases for reference:
compound | assay-value
CSc1nc2sc3cc(Cl)ccc3n2c(=N)c1C#N | 88.6
CCC(C)NCc1ccccc1 (stereo not given) | 83.4

Query: Requested field: growth. Item: `CCCc1nc2ccccn2c1Nc1ccc(C(=O)NO)cc1`
Reply: 74.2

Query: Requested field: growth. Item: `C[C@H]1[C@H]2C3=CC[C@@H]4[C@@]5(C)C/C(=C/c6ccncc6)C(=O)C(C)(C)[C@@H]5CC[C@@]4(C)[C@]3(C)CC[C@@]2(C(=O)N2CCN(C)CC2)CC[C@@H]1C`
Reply: 64.7

Query: Requested field: growth. Item: `N#Cc1c(N)nc2c(nnn2-c2cccc(Br)c2)c1N`
Reply: 97.9

Query: Requested field: growth. Item: COc1ccc(C2=NC(=O)NC2c2ccc(OC)cc2)cc1 (stereo not given)
Reply: 68.3

Query: Requested field: growth. Item: `CN1CCN(c2ccc3nc(/N=C/c4ccc5sc(-c6ccc([N+](=O)[O-])cc6)nc5c4)sc3c2)CC1`
Reply: 101

Query: Requested field: growth. Item: `CS(=O)(=O)c1ccc(-c2nc3cc(Cl)ccc3n2CC(=O)NO)cc1`
Reply: 93.8

Query: Requested field: growth. Item: `O=S(=O)(Nc1ccsc1-c1nc(-c2ccccc2)no1)c1cc(Cl)cc(Cl)c1`
Reply: 101

Query: Requested field: growth. Item: `CC1(C)N=C(N)N=C(N)N1c1ccc(Cl)c(Cl)c1`
Reply: 32

----------
System: KM12 colon
Assay: NCI-60 one-dose screen, 48 h (100 = growth as untreated, 0 = no growth, -100 = all killed)
Conditions: 10 µM unless noted
This is part of a sample that, as a whole, favours compounds with a hit. Of some 83,000 tested, about 20% had one in any assay.
measured-parameter: growth (%)
Write the value in % as a bare number.

compound | growth, %
C[C@@H](C[C@H](CCOCc1cccnc1)c1ccccc1)c1cc2ccccc2o1 | 88

Query: Requested field: growth. Item: `O=[N+]([O-])c1ccc2[nH]cc(-c3c4ccsc4cc4[nH]c5ccc([N+](=O)[O-])cc5c34)c2c1`
Reply: 3.79

Query: Requested field: growth. Item: O=C(O)C1C[C@](O)(c2ccc(F)cc2)[C@@H](c2ccc(F)cc2)O1 (stereo not given in full)
Reply: 131

Query: Requested field: growth. Item: `CCNCCNc1cc(-c2ccc(C(=O)OC)cc2)c(C#N)c2nc3ccccc3n12`
Reply: 50.8

Query: Requested field: growth. Item: `COc1ccc(-c2cc(-c3cc(OC)ccc3O)[nH]c(=O)c2C#N)cc1`
Reply: 41.8
